system tested: Alpha-2C adrenergic receptor (Homo sapiens) (UniProt P18825)
Sequence (P18825 whole entry, looked up): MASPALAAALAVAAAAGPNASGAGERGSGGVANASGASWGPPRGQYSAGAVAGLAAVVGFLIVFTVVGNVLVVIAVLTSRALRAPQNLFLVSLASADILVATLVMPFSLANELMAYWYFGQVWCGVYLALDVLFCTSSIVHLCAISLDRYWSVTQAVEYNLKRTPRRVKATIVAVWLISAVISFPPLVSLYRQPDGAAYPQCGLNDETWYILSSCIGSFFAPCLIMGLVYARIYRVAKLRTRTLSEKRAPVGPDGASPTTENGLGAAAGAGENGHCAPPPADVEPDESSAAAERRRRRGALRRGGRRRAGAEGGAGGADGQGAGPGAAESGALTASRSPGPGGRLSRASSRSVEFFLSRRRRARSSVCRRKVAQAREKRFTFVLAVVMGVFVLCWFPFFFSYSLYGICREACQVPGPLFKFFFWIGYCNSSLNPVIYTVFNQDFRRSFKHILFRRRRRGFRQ
measurement notes: compounds altering alpha2C-coupled GIRK flux – cell-based, HEK293 alpha2C/GIRK1/2, thallium flux, primary screen (AID 624);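 further: slope of fluorescence ratio to pre-addition baseline per second over 15 to 24 s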
assay context: thallium flux BTC fluorescence, at 10 µM, actives lie on both sides
Consider the cut-off 0.006. If the recorded slope is strictly smaller, the label is Condition met; if not, the label is Condition not met.

Prompt line: Would you kindly verify if slope of O=C(CC(=O)c1cc(Cl)ccc1O)c1ccccc1 is strictly less than 0.006?
Response line: Condition not met

Prompt line: Would you kindly verify if slope of CC1=C(C(=O)Nc2ccccc2)C(c2cccs2)C(C#N)=C(SCC#N)N1 (stereo unspecified) is strictly less than 0.006?
Response line: Condition met

Prompt line: Would you kindly verify if slope of COc1ccc(C)cc1NC(=O)CN(Cc1nnc(-c2ccc(Cl)cc2)o1)C1CCCC1 is strictly less than 0.006?
Response line: Condition not met

Prompt line: Would you kindly verify if slope of Cc1c(NC(=O)c2ccc(CN3CCc4ccccc4C3)cc2)c(=O)n(-c2ccccc2)n1C is strictly less than 0.006?
Response line: Condition not met

Prompt line: Would you kindly verify if slope of CCN(CC)C(=O)c1ccc(CS(=O)(=O)c2ccc(OC)cc2)o1 is strictly less than 0.006?
Response line: Condition not met

Prompt line: Would you kindly verify if slope of O=C(CSc1ncnc2c1oc1ccccc12)Nc1ccccc1F is strictly less than 0.006?
Response line: Condition not met

Prompt line: Would you kindly verify if slope of CCOC(=O)N1CCC2(O)CCCCC2C1c1ccc(F)cc1 (stereo unspecified) is strictly less than 0.006?
Response line: Condition not met

Prompt line: Would you kindly verify if slope of CCn1c(SCc2nc3ccccc3c(=O)[nH]2)nnc1-c1cccnc1 is strictly less than 0.006?
Response line: Condition met

Prompt line: Would you kindly verify if slope of C=CCn1c(SCC(=O)Nc2ccccc2OC)nnc1-c1ccccn1 is strictly less than 0.006?
Response line: Condition met

Prompt line: Would you kindly verify if slope of CCOC(=O)c1ccccc1NC(=O)N1CCn2c(C)ccc2C1CC (stereo unspecified) is strictly less than 0.006?
Response line: Condition met

Prompt line: Would you kindly verify if slope of Cc1sc(NC(=O)CSc2nc(N)n(CC(=O)c3ccccc3)n2)c(C#N)c1C is strictly less than 0.006?
Response line: Condition not met
